I'd be grateful if you could share measured ALP for these entries.
species on record: Rattus norvegicus; experiment: Open TG-GATES - Regimen: Daily Repeat; assay type: toxicity, organism-based, Sprague-Dawley; set-up: regimen Daily Repeat, gender Male, age 6 weeks; conditions: in vivo, po, 100 mg/kg, […], tissue Plasma, route gavage, dose level Low, time 7 day
Respond with a number, then the unit of measure.

**Query** Read the entry CCCCNC(=O)NS(=O)(=O)c1ccc(C)cc1 [TOLBUTAMIDE] and write its reported ALP.
**Result** 1801.2 IU/L

**Query** Read the entry O=C(O)c1ccccc1Nc1ccccc1 and write its reported ALP.
**Result** 1790.8 IU/L

**Query** Read the entry CC(S)C(=O)NCC(=O)O (centres undefined) and write its reported ALP.
**Result** 1665.2 IU/L

**Query** Read the entry CC(=O)[C@@]1(O)CC[C@H]2[C@@H]3C=C(Cl)C4=CC(=O)CC[C@]4(C)[C@H]3CC[C@@]21C and write its reported ALP.
**Result** 1694.8 IU/L

----------
I'd be grateful if you could share measured PT for these entries.
organism: Rattus norvegicus; test: Open TG-GATES - Regimen: Single; format: toxicity, organism-based, Sprague-Dawley; parameters: regimen Single, gender Male, age 6 weeks; settings: in vivo, po, 0 mg/kg, 24 h, tissue Blood, route gavage, dose level Control
I only need the number, in s, no unit after it.

**Query** Read the entry CC(S)C(=O)NCC(=O)O (stereo not drawn) and write its reported PT.
**Result** 16.4

**Query** Read the entry O=C(O)c1ccccc1Nc1ccccc1 and write its reported PT.
**Result** 14.4

**Query** Read the entry O=c1ccc2ccccc2o1 and write its reported PT.
**Result** 12.5

----------
I'd be grateful if you could share measured Ret for these entries.
organism: Rattus norvegicus; assay: Open TG-GATES - Regimen: Daily Repeat; type: toxicity, organism-based, Sprague-Dawley; set-up: regimen Daily Repeat, gender Male, age 6 weeks; conditions: in vivo, po, 300 mg/kg, […], tissue Blood, route gavage, dose level Middle, time 7 day
Respond with a number, then the unit of measure.

**Query** Read the entry O=C(O)c1ccccc1Nc1ccccc1 and write its reported Ret.
**Result** 6.2%

**Query** Read the entry CC(S)C(=O)NCC(=O)O (centres undefined) and write its reported Ret.
**Result** 6.4%

**Query** Read the entry CC(=O)[C@@]1(O)CC[C@H]2[C@@H]3C=C(Cl)C4=CC(=O)CC[C@]4(C)[C@H]3CC[C@@]21C and write its reported Ret.
**Result** 4.3%

**Query** Read the entry CCCCNC(=O)NS(=O)(=O)c1ccc(C)cc1 [TOLBUTAMIDE] and write its reported Ret.
**Result** 5.3%

----------
I'd be grateful if you could share measured Ca for these entries.
organism: Rattus norvegicus; test: Open TG-GATES - Regimen: Single; type: toxicity, organism-based, Sprague-Dawley; set-up: regimen Single, gender Male, age 6 weeks; conditions: in vivo, po, 0 mg/kg, 9 h, tissue Plasma, route gavage, dose level Control
I only need the number, in mg/dL, no unit after it.

**Query** Read the entry CN(C/C=C/C#CC(C)(C)C)Cc1cccc2ccccc12 and write its reported Ca.
**Result** 10.5

**Query** Read the entry CC(S)C(=O)NCC(=O)O (stereo unspecified) and write its reported Ca.
**Result** 10.5

**Query** Read the entry CN(CCOc1ccc(CC2SC(=O)NC2=O)cc1)c1ccccn1.O=C(O)/C=C\C(=O)O (stereo unspecified) [ROSIGLITAZONE MALEATE] and write its reported Ca.
**Result** 11

**Query** Read the entry Nc1ccc(Cc2ccc(N)cc2)cc1 and write its reported Ca.
**Result** 10.5

**Query** Read the entry CCO and write its reported Ca.
**Result** 10.7

**Query** Read the entry O=C(O)c1ccccc1Nc1ccccc1 and write its reported Ca.
**Result** 10.8

**Query** Read the entry CC(=O)[C@@]1(O)CC[C@H]2[C@@H]3C=C(Cl)C4=CC(=O)CC[C@]4(C)[C@H]3CC[C@@]21C and write its reported Ca.
**Result** 10.5

**Query** Read the entry CCCCNC(=O)NS(=O)(=O)c1ccc(C)cc1 [TOLBUTAMIDE] and write its reported Ca.
**Result** 10.7

**Query** Read the entry COc1ccc([C@@H]2Sc3ccccc3N(CCN(C)C)C(=O)[C@@H]2OC(C)=O)cc1 and write its reported Ca.
**Result** 10.6

**Query** Read the entry CN(C)CCCN1c2ccccc2Sc2ccc(Cl)cc21 and write its reported Ca.
**Result** 10.7

**Query** Read the entry O=c1ccc2ccccc2o1 and write its reported Ca.
**Result** 10.7
